Measured Ka of individual entries
Test system: IgM, monoclonal human (Homo sapiens)
EXPERIMENT: filter
ASSAY_SETUP: pH 6, 41 mM Na+

TGGTTGGTTTTTGGAAGGATTTTTTCCTTCC [RAD3]
6.71 log10 M-1
GAGAGAGTTTTTGAGAGAGTTTTTCTCTCTC [RAD7]
6.89 log10 M-1
TGGGCCGGTAACGGGTTACCGTAAGGTCCC [RAD10]
6.7 log10 M-1

# ---- query sequence ----
Notebook entry, IgM, monoclonal human (Homo sapiens) assay: Ka of TTTTCGCGCGTACGCGCGCGAA [RAD15] = ?
6.19 log10 M-1

----------
Reported values of Ka for individual entries
Test system: IgG4, monoclonal human (Homo sapiens)
ASSAY_SETUP: ultrafiltration, Picogreen; 37.5 mM NaCl, 3.75 mM Na citrate, pH 6.0

Any idea what Ka was measured for CCTCTTCTTTTTCTTCTC [RAD20] ?
7.67 log10 M-1

Which Ka reading was recorded for the sequence CCTTCCTTTGGAAGGTTG [RAD23] ?
5.97 log10 M-1

Sample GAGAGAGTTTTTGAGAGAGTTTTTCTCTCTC [RAD7] — what was its Ka?
7.16 log10 M-1
